Origin of measurements: ChEMBL document CHEMBL4765295

Catalogue of Activity values
test system: Rattus norvegicus; assay: Antiinflammatory activity in Wistar rat model of carrageenan-induced paw edema assessed as reduction in thickness of paw edema at 10 mg/kg, ip pretreated for 1 hr followed by carrageenan challenge and measured after 2 hrs (reference value: 2.06 +/-0.09 mm); type: functional; settings: time 3 hrs
Measured endpoint: Activity (mm)

Molecule	Assay target	Assay result
COc1cc(/C=C/C(=O)/C=C(O)/C=C/c2ccc(OC(=O)[C@@H](CCSC)NC(=O)OCc3ccccc3)c(OC)c2)ccc1OC(=O)[C@@H](CCSC)NC(=O)OCc1ccccc1	Rattus norvegicus	0.41
COc1cc(/C=C/C(=O)/C=C(O)/C=C/c2ccc(OC(=O)[C@H](Cc3ccccc3)NC(=O)OC(C)(C)C)c(OC)c2)ccc1OC(=O)[C@H](Cc1ccccc1)NC(=O)OC(C)(C)C	Rattus norvegicus	1.16
COc1cc(/C=C/C(=O)/C=C(O)/C=C/c2ccc(OC(=O)[C@H](Cc3c[nH]c4ccccc34)NC(=O)OCc3ccccc3)c(OC)c2)ccc1OC(=O)[C@H](Cc1c[nH]c2ccccc12)NC(=O)OCc1ccccc1	Rattus norvegicus	1.48
CC[C@H](C)[C@H](N)C(=O)Oc1ccc(/C=C/C(=O)/C=C(O)/C=C/c2ccc(OC(=O)[C@@H](N)[C@@H](C)CC)c(OC)c2)cc1OC.Cl.Cl	Rattus norvegicus	1.31
COc1cc(/C=C/C(=O)/C=C(O)/C=C/c2ccc(OC(=O)[C@H](CC(C)C)NC(=O)OCc3ccccc3)c(OC)c2)ccc1OC(=O)[C@H](CC(C)C)NC(=O)OCc1ccccc1	Rattus norvegicus	1.85
COc1cc(/C=C/C(=O)/C=C(O)/C=C/c2ccc(OC(=O)[C@H](CCSC)NC(=O)OCC3c4ccccc4-c4ccccc43)c(OC)c2)ccc1OC(=O)[C@H](CCSC)NC(=O)OCC1c2ccccc2-c2ccccc21	Rattus norvegicus	0.56
COc1cc(/C=C/C(=O)/C=C(O)/C=C/c2ccc(OC(=O)[C@@H](N)CCC(N)=O)c(OC)c2)ccc1OC(=O)[C@@H](N)CCC(N)=O.Cl.Cl	Rattus norvegicus	1.14
COc1cc(/C=C/C(=O)CC(=O)/C=C/c2ccc(O)c(OC)c2)ccc1O [CURCUMIN]	Rattus norvegicus	0.82
COc1cc(/C=C/C(=O)/C=C(O)/C=C/c2ccc(OC(=O)[C@H](CCC(N)=O)NC(=O)OCc3ccccc3)c(OC)c2)ccc1OC(=O)[C@H](CCC(N)=O)NC(=O)OCc1ccccc1	Rattus norvegicus	1.09
COc1cc(/C=C/C(=O)/C=C(O)/C=C/c2ccc(OC(=O)[C@@H](C)NC(=O)OC(C)(C)C)c(OC)c2)ccc1OC(=O)[C@@H](C)NC(=O)OC(C)(C)C	Rattus norvegicus	1.46
COc1cc(/C=C/C(=O)/C=C(O)/C=C/c2ccc(OC(=O)[C@H](C)NC(=O)OCC3c4ccccc4-c4ccccc43)c(OC)c2)ccc1OC(=O)[C@H](C)NC(=O)OCC1c2ccccc2-c2ccccc21	Rattus norvegicus	1.59
COc1cc(/C=C/C(=O)/C=C(O)/C=C/c2ccc(OC(=O)[C@H](Cc3ccccc3)NC(=O)OCC3c4ccccc4-c4ccccc43)c(OC)c2)ccc1OC(=O)[C@H](Cc1ccccc1)NC(=O)OCC1c2ccccc2-c2ccccc21	Rattus norvegicus	1.22
COc1cc(/C=C/C(=O)/C=C(O)/C=C/c2ccc(OC(=O)[C@@H](NC(=O)OCC3c4ccccc4-c4ccccc43)C(C)C)c(OC)c2)ccc1OC(=O)[C@@H](NC(=O)OCC1c2ccccc2-c2ccccc21)C(C)C	Rattus norvegicus	1.05
COc1ccc2c(c1)c(CC(=O)O)c(C)n2C(=O)c1ccc(Cl)cc1 [INDOMETHACIN]	Rattus norvegicus	0.85
COc1cc(/C=C/C(=O)/C=C(O)/C=C/c2ccc(OC(=O)C(C)N)c(OC)c2)ccc1OC(=O)C(C)N.Cl.Cl (configuration not stated)	Rattus norvegicus	0.94
CC[C@H](C)[C@H](NC(=O)OC(C)(C)C)C(=O)Oc1ccc(/C=C/C(=O)/C=C(O)/C=C/c2ccc(OC(=O)[C@@H](NC(=O)OC(C)(C)C)[C@@H](C)CC)c(OC)c2)cc1OC	Rattus norvegicus	1.27
COc1cc(/C=C/C(=O)/C=C(O)/C=C/c2ccc(OC(=O)C(C)NC(=O)OCc3ccccc3)c(OC)c2)ccc1OC(=O)C(C)NC(=O)OCc1ccccc1 (configuration not stated)	Rattus norvegicus	0.26
COc1cc(/C=C/C(=O)/C=C(O)/C=C/c2ccc(OC(=O)[C@H](C)N)c(OC)c2)ccc1OC(=O)[C@H](C)N.Cl.Cl	Rattus norvegicus	1.19
COc1cc(/C=C/C(=O)/C=C(O)/C=C/c2ccc(OC(=O)[C@@H](C)N)c(OC)c2)ccc1OC(=O)[C@@H](C)N.Cl.Cl	Rattus norvegicus	0.79
COc1cc(/C=C/C(=O)/C=C(O)/C=C/c2ccc(OC(=O)CNC(=O)OCc3ccccc3)c(OC)c2)ccc1OC(=O)CNC(=O)OCc1ccccc1	Rattus norvegicus	1.41
COc1cc(/C=C/C(=O)/C=C(O)/C=C/c2ccc(OC(=O)[C@@H](NC(=O)OCc3ccccc3)C(C)C)c(OC)c2)ccc1OC(=O)[C@@H](NC(=O)OCc1ccccc1)C(C)C	Rattus norvegicus	1.65
COc1cc(/C=C/C(=O)/C=C(O)/C=C/c2ccc(OC(=O)C(C)NC(=O)OC(C)(C)C)c(OC)c2)ccc1OC(=O)C(C)NC(=O)OC(C)(C)C (configuration not stated)	Rattus norvegicus	1.74
